Data provenance is paper PMC6271143.

System: mouse peritoneal macrophages
METHOD_SUMMARY: Cytotoxicity (MTT assay) against mouse peritoneal macrophages
Type: cell-based, mouse (Balb/c)
ASSAY_CONTEXT: 24 h, murine peritoneal macrophages, read-out: CC50: concentration that is cytotoxic against 50% of macrophages
CC50 strictly under 6 µM means Condition met; at 6 µM or over means Condition not met.

Here's what some known entries look like.
## Input is_below(CC50, 6 µM) for CC(=O)Oc1cccc(C(=O)[O][Bi]([O]C(=O)c2cccc(OC(C)=O)c2)([c]2ccccc2)([c]2ccccc2)[c]2ccccc2)c1 [Complex 4] ?
## Output Condition met

## Input is_below(CC50, 6 µM) for CC(=O)Oc1ccccc1C(=O)[O][Bi]([O]C(=O)c1ccccc1OC(C)=O)([c]1ccccc1)([c]1ccccc1)[c]1ccccc1 [Complex 3] ?
## Output Condition not met

## Input is_below(CC50, 6 µM) for O=C([O-])[O-].c1cc[c]([Bi+2]([c]2ccccc2)[c]2ccccc2)cc1 [Complex M2, triphenylbismuth carbonate] ?
## Output Condition not met

## Input is_below(CC50, 6 µM) for CC(=O)Oc1ccccc1C(=O)[O][Sb]([O]C(=O)c1ccccc1OC(C)=O)([c]1ccccc1)([c]1ccccc1)[c]1ccccc1 [Complex 1] ?
## Output Condition not met

Continuing:
## Input is_below(CC50, 6 µM) for [Cl][Sb]([Cl])([c]1ccccc1)([c]1ccccc1)[c]1ccccc1 [Complex M1, triphenylantimony(V) dichloride] ?
## Output Condition not met
